Molecular target: MKNK1 (human)
Test: KINOMEscan competition binding
Details: compound 10.0 µM
reportedMetric: kinase still bound, per cent of control
Write the numeric value and append its unit.

Example molecules with recorded kinase still bound, per cent of control:
COCC(=O)NC/C=C/c1ccc2ncnc(Nc3ccc(Oc4ccc(C)nc4)c(C)c3)c2c1 ... 100%
C=CC(=O)Nc1cc(-n2c(=O)ccc3cnc4ccc(-c5cn[nH]c5)cc4c32)ccc1C ... 39%
CNC(=O)c1ccc(Nc2cc(Nc3ccccc3S(=O)(=O)C(C)C)c3cc[nH]c3n2)nc1 ... 100%
O=c1cc(N2CCOCC2)oc2c(-c3cccc4c3sc3ccccc34)cccc12 ... 100%
CNC(=O)c1cc(Oc2ccc(NC(=O)Nc3ccc(Cl)c(C(F)(F)F)c3)cc2)ccn1 ... 2.1%

Reported kinase still bound, per cent of control of `CS(=O)(=O)N1CCN(Cc2cc3nc(-c4cccc5[nH]ncc45)nc(N4CCOCC4)c3s2)CC1` : 100%

Reported kinase still bound, per cent of control of `CCN1CCN(C(=O)Cc2ccc(Nc3ncc(F)c(Nc4ccc(C(=O)Nc5ccccc5Cl)cc4)n3)cc2)CC1` : 100%

Reported kinase still bound, per cent of control of `CCN(CC)CCCCNc1ncc2c(n1)N(C)C(=O)N(c1c(Cl)c(OC)cc(OC)c1Cl)C2` : 100%

Reported kinase still bound, per cent of control of `COc1ccc(N(C(=O)Oc2c(C)cccc2C)c2ccnc(Nc3ccc(N4CCN(C)CC4)cc3)n2)c(OC)c1` : 98%

====

Molecular target: PTK2B (human) (UniProt Q14289)
Sequence (Q14289 whole entry, looked up): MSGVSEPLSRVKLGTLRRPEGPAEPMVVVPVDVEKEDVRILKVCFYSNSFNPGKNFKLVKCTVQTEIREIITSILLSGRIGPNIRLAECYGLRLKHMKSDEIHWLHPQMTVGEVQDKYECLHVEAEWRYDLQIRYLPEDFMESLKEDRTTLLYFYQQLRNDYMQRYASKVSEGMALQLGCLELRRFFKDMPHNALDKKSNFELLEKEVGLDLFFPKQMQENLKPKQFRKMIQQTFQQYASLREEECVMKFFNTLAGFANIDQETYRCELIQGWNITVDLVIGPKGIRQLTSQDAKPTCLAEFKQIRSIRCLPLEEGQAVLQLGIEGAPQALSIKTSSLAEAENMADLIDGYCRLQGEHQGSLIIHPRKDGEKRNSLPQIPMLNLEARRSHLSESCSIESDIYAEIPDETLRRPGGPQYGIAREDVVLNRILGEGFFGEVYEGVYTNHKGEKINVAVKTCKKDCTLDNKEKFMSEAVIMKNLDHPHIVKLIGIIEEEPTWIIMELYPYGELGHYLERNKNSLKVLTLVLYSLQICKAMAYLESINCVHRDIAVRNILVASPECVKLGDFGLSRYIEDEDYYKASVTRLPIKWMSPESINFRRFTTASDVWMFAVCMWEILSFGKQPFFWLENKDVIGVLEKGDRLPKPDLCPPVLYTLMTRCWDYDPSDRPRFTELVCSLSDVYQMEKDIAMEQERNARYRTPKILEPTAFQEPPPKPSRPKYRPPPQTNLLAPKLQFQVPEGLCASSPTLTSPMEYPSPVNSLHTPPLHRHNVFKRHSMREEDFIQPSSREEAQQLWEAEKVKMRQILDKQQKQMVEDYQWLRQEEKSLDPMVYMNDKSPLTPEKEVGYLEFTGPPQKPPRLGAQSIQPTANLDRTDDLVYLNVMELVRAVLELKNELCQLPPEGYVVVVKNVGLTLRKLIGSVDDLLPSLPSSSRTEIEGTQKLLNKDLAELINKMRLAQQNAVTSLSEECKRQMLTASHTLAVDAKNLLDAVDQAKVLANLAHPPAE
Experiment: KINOMEscan competition binding
Conditions: compound 10.0 µM
As shown below, each of these compounds has a reported kinase still bound, per cent of control value.
// return numeric value only (unit: %, not printed)

Example compounds with recorded kinase still bound, per cent of control:
N#CCNC(=O)c1ccc(-c2ccnc(Nc3ccc(N4CCOCC4)cc3)n2)cc1 ... 86
CNC(=O)c1cc(Oc2ccc(NC(=O)Nc3ccc(Cl)c(C(F)(F)F)c3)cc2)ccn1 ... 100
CCN1CCN(C(=O)Cc2ccc(Nc3ncc(F)c(Nc4ccc(C(=O)Nc5ccccc5Cl)cc4)n3)cc2)CC1 ... 33
NC(=O)Nc1cc(-c2cccc(F)c2)sc1C(=O)N[C@@H]1CCCNC1 ... 0.6

Could you now consider this next compound?
Reported kinase still bound, per cent of control of `CCN(CC)CCCCNc1ncc2cc(-c3cc(OC)cc(OC)c3)c(NC(=O)NC(C)(C)C)nc2n1` : 100

====

Target: CAMK1G (human) (UniProt Q96NX5)
Sequence (Q96NX5 whole entry, looked up): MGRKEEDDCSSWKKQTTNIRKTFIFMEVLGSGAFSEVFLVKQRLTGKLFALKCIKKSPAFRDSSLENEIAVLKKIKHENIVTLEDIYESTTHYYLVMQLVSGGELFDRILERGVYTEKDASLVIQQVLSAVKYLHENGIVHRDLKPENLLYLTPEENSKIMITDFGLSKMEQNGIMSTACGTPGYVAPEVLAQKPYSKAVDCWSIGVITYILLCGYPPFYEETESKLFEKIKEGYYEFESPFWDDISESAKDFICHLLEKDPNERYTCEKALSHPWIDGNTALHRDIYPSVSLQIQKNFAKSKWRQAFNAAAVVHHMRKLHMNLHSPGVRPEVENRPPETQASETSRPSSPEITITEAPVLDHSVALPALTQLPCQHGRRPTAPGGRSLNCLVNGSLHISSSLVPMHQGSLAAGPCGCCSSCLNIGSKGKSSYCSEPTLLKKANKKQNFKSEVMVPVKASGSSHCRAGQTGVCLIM
Test: KINOMEscan competition binding
Details: compound 10.0 µM
reportedMetric: kinase still bound, per cent of control (%)
// return numeric value only (unit: %, not printed)

Example compounds with recorded kinase still bound, per cent of control:
CCN1CCN(C(=O)Cc2ccc(Nc3ncc(F)c(Nc4ccc(C(=O)Nc5ccccc5Cl)cc4)n3)cc2)CC1 ... 39
NC(=O)Nc1cc(-c2cccc(F)c2)sc1C(=O)N[C@@H]1CCCNC1 ... 6.2
COc1cc(N2CCN(C)CC2)ccc1Nc1ncc2c(n1)N(C)c1ccccc1C(=O)N2C ... 100
CCN(CC)CCCCNc1ncc2cc(-c3cc(OC)cc(OC)c3)c(NC(=O)NC(C)(C)C)nc2n1 ... 100
COc1ccc(N(C(=O)Oc2c(C)cccc2C)c2ccnc(Nc3ccc(N4CCN(C)CC4)cc3)n2)c(OC)c1 ... 73

Reported kinase still bound, per cent of control of `COc1cc2ncnc(-n3nc(-c4ccccn4)nc3N)c2cc1OC` : 34

Reported kinase still bound, per cent of control of `C=CC(=O)Nc1cc(-n2c(=O)ccc3cnc4ccc(-c5cn[nH]c5)cc4c32)ccc1C` : 79

Reported kinase still bound, per cent of control of `C=CC(=O)Nc1ccc(CN(C(=O)Nc2c(Cl)c(OC)cc(OC)c2Cl)c2cc(Nc3ccc(N4CCN(C)CC4)cc3)ncn2)cc1` : 100

Reported kinase still bound, per cent of control of `O=c1cc(N2CCOCC2)oc2c(-c3cccc4c3sc3ccccc34)cccc12` : 85

Reported kinase still bound, per cent of control of `COc1cc2ncn(-c3cc(OCc4ccccc4C(F)(F)F)c(C(N)=O)s3)c2cc1OC` : 72

Reported kinase still bound, per cent of control of `CNC(=O)c1ccc(Nc2cc(Nc3ccccc3S(=O)(=O)C(C)C)c3cc[nH]c3n2)nc1` : 100

Reported kinase still bound, per cent of control of `N#CCNC(=O)c1ccc(-c2ccnc(Nc3ccc(N4CCOCC4)cc3)n2)cc1` : 30

Reported kinase still bound, per cent of control of `CN(C)C/C=C/C(=O)Nc1ccc(C(=O)Nc2cccc(Nc3nccc(-c4cccnc4)n3)c2)cc1` : 64

Reported kinase still bound, per cent of control of `O=C(Nc1cccc(Nc2ncc(Br)c(NCCc3cnc[nH]3)n2)c1)N1CCCC1` : 28

Reported kinase still bound, per cent of control of `CCN(CC)CCCCNc1ncc2c(n1)N(C)C(=O)N(c1c(Cl)c(OC)cc(OC)c1Cl)C2` : 100

Reported kinase still bound, per cent of control of `COc1cc(C(=O)N2CCC(N3CCN(C)CC3)CC2)ccc1Nc1ncc2c(n1)N(C)c1ccccc1C(=O)N2C` : 74

Reported kinase still bound, per cent of control of `COCC(=O)NC/C=C/c1ccc2ncnc(Nc3ccc(Oc4ccc(C)nc4)c(C)c3)c2c1` : 96

Reported kinase still bound, per cent of control of `CNC(=O)c1cc(Oc2ccc(NC(=O)Nc3ccc(Cl)c(C(F)(F)F)c3)cc2)ccn1` : 99

Reported kinase still bound, per cent of control of `O=C1NC(=O)/C(=C/c2ccc3nccc(-c4ccncc4)c3c2)S1` : 32

Reported kinase still bound, per cent of control of `C[C@@H](Oc1cc(-c2cnn(C3CCNCC3)c2)cnc1N)c1c(Cl)ccc(F)c1Cl` : 76

Reported kinase still bound, per cent of control of `Cc1n[nH]c2ccc(-c3cncc(OC[C@@H](N)Cc4c[nH]c5ccccc45)c3)cc12` : 100

====

Molecular target: RPS6KA5 KD2 (human) (UniProt O75582)
Sequence (O75582 whole entry, looked up): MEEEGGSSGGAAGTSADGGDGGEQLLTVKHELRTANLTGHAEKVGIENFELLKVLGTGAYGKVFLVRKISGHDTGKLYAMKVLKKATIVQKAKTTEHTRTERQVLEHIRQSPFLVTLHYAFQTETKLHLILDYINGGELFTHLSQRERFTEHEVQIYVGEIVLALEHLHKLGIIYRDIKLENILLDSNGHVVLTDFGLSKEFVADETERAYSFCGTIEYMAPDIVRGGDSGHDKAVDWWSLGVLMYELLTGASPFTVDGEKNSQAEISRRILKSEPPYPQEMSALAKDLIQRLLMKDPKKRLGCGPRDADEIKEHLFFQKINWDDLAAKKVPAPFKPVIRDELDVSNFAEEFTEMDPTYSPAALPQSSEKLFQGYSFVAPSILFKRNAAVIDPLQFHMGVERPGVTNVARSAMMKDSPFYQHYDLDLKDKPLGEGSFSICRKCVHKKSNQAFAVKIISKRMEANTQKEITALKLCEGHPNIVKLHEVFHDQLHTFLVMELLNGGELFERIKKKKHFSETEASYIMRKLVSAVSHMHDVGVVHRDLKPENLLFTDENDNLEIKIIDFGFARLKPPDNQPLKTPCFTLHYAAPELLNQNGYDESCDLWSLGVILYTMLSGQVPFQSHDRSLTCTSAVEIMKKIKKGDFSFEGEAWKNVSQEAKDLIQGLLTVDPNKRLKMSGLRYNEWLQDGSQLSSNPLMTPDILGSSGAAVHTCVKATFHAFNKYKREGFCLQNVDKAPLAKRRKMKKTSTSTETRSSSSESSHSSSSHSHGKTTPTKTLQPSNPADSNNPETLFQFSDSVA
Experiment: KINOMEscan competition binding
Conditions: compound 10.0 µM
reportedMetric: kinase still bound, per cent of control (%)
// return numeric value only (unit: %, not printed)

CCN(CC)CCCCNc1ncc2c(n1)N(C)C(=O)N(c1c(Cl)c(OC)cc(OC)c1Cl)C2 ... 100
O=c1cc(N2CCOCC2)oc2c(-c3cccc4c3sc3ccccc34)cccc12 ... 80
O=C(Nc1cccc(Nc2ncc(Br)c(NCCc3cnc[nH]3)n2)c1)N1CCCC1 ... 31
CNC(=O)c1cc(Oc2ccc(NC(=O)Nc3ccc(Cl)c(C(F)(F)F)c3)cc2)ccn1 ... 100
O=C1NC(=O)/C(=C/c2ccc3nccc(-c4ccncc4)c3c2)S1 ... 4.6

Reported kinase still bound, per cent of control of `NC(=O)Nc1cc(-c2cccc(F)c2)sc1C(=O)N[C@@H]1CCCNC1` : 9

Reported kinase still bound, per cent of control of `CCN(CC)CCCCNc1ncc2cc(-c3cc(OC)cc(OC)c3)c(NC(=O)NC(C)(C)C)nc2n1` : 100

Reported kinase still bound, per cent of control of `CN(C)C/C=C/C(=O)Nc1ccc(C(=O)Nc2cccc(Nc3nccc(-c4cccnc4)n3)c2)cc1` : 98

Reported kinase still bound, per cent of control of `CCN1CCN(C(=O)Cc2ccc(Nc3ncc(F)c(Nc4ccc(C(=O)Nc5ccccc5Cl)cc4)n3)cc2)CC1` : 66

Reported kinase still bound, per cent of control of `COc1cc(N2CCN(C)CC2)ccc1Nc1ncc2c(n1)N(C)c1ccccc1C(=O)N2C` : 100

====

Target: MAPK13 (human) (UniProt O15264)
Sequence (O15264 whole entry, looked up): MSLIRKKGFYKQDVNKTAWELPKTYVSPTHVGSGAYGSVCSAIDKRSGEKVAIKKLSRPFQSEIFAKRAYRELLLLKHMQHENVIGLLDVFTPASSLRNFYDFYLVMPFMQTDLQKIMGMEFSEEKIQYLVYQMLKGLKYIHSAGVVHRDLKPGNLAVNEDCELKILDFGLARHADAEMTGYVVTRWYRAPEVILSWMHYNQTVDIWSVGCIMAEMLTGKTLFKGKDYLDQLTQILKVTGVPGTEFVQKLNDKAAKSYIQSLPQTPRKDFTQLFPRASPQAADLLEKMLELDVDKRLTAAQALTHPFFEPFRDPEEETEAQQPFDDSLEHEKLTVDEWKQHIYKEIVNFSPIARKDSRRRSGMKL
Test: KINOMEscan competition binding
Settings: compound 10.0 µM
As shown below, each of these compounds has a reported kinase still bound, per cent of control value.
// return numeric value only (unit: %, not printed)

C=CC(=O)Nc1cc(-n2c(=O)ccc3cnc4ccc(-c5cn[nH]c5)cc4c32)ccc1C ... 76
O=C(Nc1cccc(Nc2ncc(Br)c(NCCc3cnc[nH]3)n2)c1)N1CCCC1 ... 11
NC(=O)Nc1cc(-c2cccc(F)c2)sc1C(=O)N[C@@H]1CCCNC1 ... 100
CS(=O)(=O)N1CCN(Cc2cc3nc(-c4cccc5[nH]ncc45)nc(N4CCOCC4)c3s2)CC1 ... 100

Could you now consider this next compound?
Response field kinase still bound, per cent of control (MAPK13 (human) (UniProt O15264)) for item `COc1cc2ncn(-c3cc(OCc4ccccc4C(F)(F)F)c(C(N)=O)s3)c2cc1OC` : 100

====

Molecular target: CDK7 (human)
Test: KINOMEscan competition binding
Settings: compound 10.0 µM
As shown below, each of these molecules has a reported kinase still bound, per cent of control value.
// return numeric value only (unit: %, not printed)

Example molecules with recorded kinase still bound, per cent of control:
CNC(=O)c1ccc(Nc2cc(Nc3ccccc3S(=O)(=O)C(C)C)c3cc[nH]c3n2)nc1 ... 1.8
O=C(Nc1cccc(Nc2ncc(Br)c(NCCc3cnc[nH]3)n2)c1)N1CCCC1 ... 0.55

Could you now consider this next molecule?
Reported kinase still bound, per cent of control of `CCN(CC)CCCCNc1ncc2c(n1)N(C)C(=O)N(c1c(Cl)c(OC)cc(OC)c1Cl)C2` : 100

This collection of values is drawn from the kinase profiling compilation of Christmann-Franck et al. (2016).
